pKi: −log10 of the molar value.
Quick note: these are pKi numbers for system: Carbonic anhydrase 2 (Homo sapiens, UniProt P00918)

Chem Smiles | Measured Target | pKi
NS(=O)(=O)c1cccc(-n2cc(CNC(=S)Nc3ccc(-c4c5ccc(=O)cc-5oc5cc(O)ccc45)c(C(=O)O)c3)nn2)c1 | Carbonic anhydrase 2 (Homo sapiens, UniProt P00918) | 6.90
NS(=O)(=O)c1ccc(-n2cc(CNC(=S)Nc3ccc(-c4c5ccc(=O)cc-5oc5cc(O)ccc45)c(C(=O)O)c3)nn2)cc1 | Carbonic anhydrase 2 (Homo sapiens, UniProt P00918) | 7.44

----------
Measured Target: Carbonic anhydrase 14 (Homo sapiens, UniProt Q9ULX7)
Sequence (Q9ULX7 whole entry): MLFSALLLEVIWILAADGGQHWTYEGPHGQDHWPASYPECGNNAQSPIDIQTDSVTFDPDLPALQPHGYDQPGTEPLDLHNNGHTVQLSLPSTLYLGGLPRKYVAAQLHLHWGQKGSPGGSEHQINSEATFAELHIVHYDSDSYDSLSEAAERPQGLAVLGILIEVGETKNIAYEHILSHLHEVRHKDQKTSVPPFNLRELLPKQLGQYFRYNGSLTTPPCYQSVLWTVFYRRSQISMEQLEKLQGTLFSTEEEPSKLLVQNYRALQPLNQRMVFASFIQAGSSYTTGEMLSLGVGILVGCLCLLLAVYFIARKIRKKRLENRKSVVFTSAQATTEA

Chem Smiles | Ki [nM]
NS(=O)(=O)c1ccc(CNC(=S)Nc2ccc(-c3c4ccc(=O)cc-4oc4cc(O)ccc34)c(C(=O)O)c2)cc1 | 41
